Just for reference, PubChem BioAssay AID1963854 is where these values come from.

# Test system: 186277-243-T-J2-PDC complex spheroid viability
# method_notes: Anticancer human tumor 186277-243-T-J2-PDC patient-derived colon adenocarcinoma cell line growth inhibition [POLQ]
# measurement_setup: second compound 3.16 µM; first compound 3.16 µM; active compounds read low
# Description: Multicellular complex tumor spheroid response to Polymerase (POL) inhibitors (novobiocin, ART-558, RP6685) in combination with a variety of drugs and investigational agents in selected tumor cell lines The POL inhibitors (novobiocin, ART-558, and RP6685) were evaluated both individually and in combination with standard of care and investigational anticancer small molecules within a complex spheroid model of solid tumors. . […]
Listed here: items and their measured viability, T/C.
Report the value in % with no unit label.

Worked examples, 4 compounds total:
- compound: "CC1COCCN1c1cc(C2(S(C)(=N)=O)CC2)nc(-c2ccnc3[nH]ccc23)n1 (stereo not given) + Cc1cccc(N(C)C(=O)C2C(O)CCN2c2nc(C)cc(C(F)(F)F)c2C#N)c1"
  parameter_measured: "viability, T/C"
  observed_value: 8.67
- compound: "CNCc1ccc(-c2[nH]c3cc(F)cc4c3c2CCNC4=O)cc1 + COC1C(OC(N)=O)C(O)C(Oc2ccc3c(O)c(NC(=O)c4ccc(O)c(CC=C(C)C)c4)c(=O)oc3c2C)OC1(C)C"
  parameter_measured: "viability, T/C"
  observed_value: 109
- compound: "COc1cc2cc(C(=O)CCC(=O)O)sc2cc1OC + COC1C(OC(N)=O)C(O)C(Oc2ccc3c(O)c(NC(=O)c4ccc(O)c(CC=C(C)C)c4)c(=O)oc3c2C)OC1(C)C"
  parameter_measured: "viability, T/C"
  observed_value: 105
- compound: "CC(C)n1c(=O)n(C)c2cnc3cc(F)c(-c4ccc(OCCCN5CCCCC5)nc4)cc3c21 + Nc1ccc(C#CCN(C(=O)Cc2ncc(C(F)(F)F)cc2C(F)(F)F)c2ccc(F)cc2)nn1"
  parameter_measured: "viability, T/C"
  observed_value: 119

Here is the next item to consider.
query: Can you look up the measured viability, T/C of COc1cc(C2c3cc4c(cc3C(OC3OC5COC(C)OC5C(O)C3O)C3COC(=O)C23)OCO4)cc(OC)c1O (stereo not given) + Cc1cccc(N(C)C(=O)C2C(O)CCN2c2nc(C)cc(C(F)(F)F)c2C#N)c1 for me?
result: 27.2

###

# System: 186277-243-T-J2-PDC complex spheroid viability
# method_notes: Anticancer human tumor 186277-243-T-J2-PDC cell line growth inhibition [POLQ];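 also: spheroids exposed to compounds for seven days; 100% = DMSO vehicle control viability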
# measurement_setup: second compound 0.0316 µM; first compound 0.01 µM; active compounds read low
Overview of recorded viability, T/C for various compounds
State just the number; it will be interpreted in %.

query: Form field: reported viability, T/C of Cn1ncnc1[C@H]1c2n[nH]c(=O)c3cc(F)cc(c23)N[C@@H]1c1ccc(F)cc1 + Nc1ccc(C#CCN(C(=O)Cc2ncc(C(F)(F)F)cc2C(F)(F)F)c2ccc(F)cc2)nn1
result: 113

query: Another compound: C=CCn1c(=O)c2cnc(Nc3ccc(N4CCN(C)CC4)cc3)nc2n1-c1cccc(C(C)(C)O)n1 + Nc1ccc(C#CCN(C(=O)Cc2ncc(C(F)(F)F)cc2C(F)(F)F)c2ccc(F)cc2)nn1
result: 91.2

query: Cool, now Cn1ncnc1[C@H]1c2n[nH]c(=O)c3cc(F)cc(c23)N[C@@H]1c1ccc(F)cc1 + COC1C(OC(N)=O)C(O)C(Oc2ccc3c(O)c(NC(=O)c4ccc(O)c(CC=C(C)C)c4)c(=O)oc3c2C)OC1(C)C
result: 112

query: Query C=CCn1c(=O)c2cnc(Nc3ccc(N4CCN(C)CC4)cc3)nc2n1-c1cccc(C(C)(C)O)n1 + COC1C(OC(N)=O)C(O)C(Oc2ccc3c(O)c(NC(=O)c4ccc(O)c(CC=C(C)C)c4)c(=O)oc3c2C)OC1(C)C next
result: 88.2
